Listing of recorded activity change % (negative = inhibition) by entry.
Target: Thyroid hormone receptor beta (Homo sapiens)
Test: qHTS assay for small molecule antagonists of thyroid hormone receptor beta signaling (AID 588547);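 further: cells stimulated with 0.4 nM T3 agonist during compound exposure; series mostly up to about 77 µM; on the % scale 0 is the no-effect control and ±100 the full control effect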
Conditions: TR-UAS-bla HEK293, beta-lactamase ratio, antagonist mode, 18 h
Description: NIH Chemical Genomics Center [NCGC] U.S. Environmental Protection Agency [EPA] National Institutes of Environmental Health Sciences [NIEHS] National Toxicology Program [NTP] […] NCGC Assay Protocol Summary Using a beta-lactamase reporter-gene under control of the TR response element, a cell-based assay [GeneBLAzer TR-UAS-bla-GripTite assay developed by Invitrogen] was used to measure TR-beta signaling in antagonist mode. […] Detection; Fluorescence; Envision plate reader
Inconclusive results are not listed.
quantity-name: activity change % (negative = inhibition) (%)

>  <compound>
C=Cc1cccc(C)c1

>  <measured-on>
Thyroid hormone receptor beta (Homo sapiens)

>  <number>
-8.39

$$$$
>  <compound>
CC(=O)OCc1ccc2c(c1)OCO2

>  <measured-on>
Thyroid hormone receptor beta (Homo sapiens)

>  <number>
-11.5

$$$$
>  <compound>
CCOc1ccc2nc(N)sc2c1

>  <measured-on>
Thyroid hormone receptor beta (Homo sapiens)

>  <number>
-4.05

$$$$
>  <compound>
CC(C)OCC1CO1 (stereo unspecified)

>  <measured-on>
Thyroid hormone receptor beta (Homo sapiens)

>  <number>
8.25

$$$$
>  <compound>
COc1cc(-c2ccc(N=C=O)c(OC)c2)ccc1N=C=O

>  <measured-on>
Thyroid hormone receptor beta (Homo sapiens)

>  <number>
-7.61

$$$$
>  <compound>
CC(C)S

>  <measured-on>
Thyroid hormone receptor beta (Homo sapiens)

>  <number>
11.8

$$$$
>  <compound>
CCCCCCCCOc1ccc(C(=O)O)cc1

>  <measured-on>
Thyroid hormone receptor beta (Homo sapiens)

>  <number>
10

$$$$
>  <compound>
O=c1[nH]ncc2ccccc12

>  <measured-on>
Thyroid hormone receptor beta (Homo sapiens)

>  <number>
-18.2

$$$$
>  <compound>
C=C(C#N)C(=O)OCC

>  <measured-on>
Thyroid hormone receptor beta (Homo sapiens)

>  <number>
4.82

$$$$
>  <compound>
O=C(O)c1cc(N=Nc2ccc([N+](=O)[O-])cc2)ccc1O

>  <measured-on>
Thyroid hormone receptor beta (Homo sapiens)

>  <number>
12.8

$$$$
>  <compound>
NC(=O)Nc1nc2ccccc2[nH]1

>  <measured-on>
Thyroid hormone receptor beta (Homo sapiens)

>  <number>
-13.1

$$$$
>  <compound>
Cc1c(N)cccc1Cl

>  <measured-on>
Thyroid hormone receptor beta (Homo sapiens)

>  <number>
0.909

$$$$
>  <compound>
C=CC(=O)OCCCCCCOC(=O)C=C

>  <measured-on>
Thyroid hormone receptor beta (Homo sapiens)

>  <number>
-7.08

$$$$
>  <compound>
O=C(OCC1CO1)C1CCCCC1C(=O)OCC1CO1 (stereo unspecified)

>  <measured-on>
Thyroid hormone receptor beta (Homo sapiens)

>  <number>
-2.36

$$$$
>  <compound>
S=C(NC1CCCCC1)NC1CCCCC1

>  <measured-on>
Thyroid hormone receptor beta (Homo sapiens)

>  <number>
30

$$$$
>  <compound>
Nc1ccc(-c2ccc(N)c(O)c2)cc1O

>  <measured-on>
Thyroid hormone receptor beta (Homo sapiens)

>  <number>
-12.5

$$$$
>  <compound>
Oc1ccc(O)c2c(O)cccc12

>  <measured-on>
Thyroid hormone receptor beta (Homo sapiens)

>  <number>
-24.9

$$$$
>  <compound>
O=C(Cl)c1ccc([N+](=O)[O-])cc1

>  <measured-on>
Thyroid hormone receptor beta (Homo sapiens)

>  <number>
12

$$$$
>  <compound>
Nc1ccc(N)c(Cl)c1

>  <measured-on>
Thyroid hormone receptor beta (Homo sapiens)

>  <number>
-7.72

$$$$
>  <compound>
Clc1nc2ccccc2nc1Cl

>  <measured-on>
Thyroid hormone receptor beta (Homo sapiens)

>  <number>
-2.15

$$$$
>  <compound>
CCCCC(CC)COP(=O)(OCC(CC)CCCC)OCC(CC)CCCC (stereo unspecified)

>  <measured-on>
Thyroid hormone receptor beta (Homo sapiens)

>  <number>
-23.6

$$$$
>  <compound>
CC(=O)c1ccc(Cl)c(Cl)c1Cl

>  <measured-on>
Thyroid hormone receptor beta (Homo sapiens)

>  <number>
-12.3

$$$$
>  <compound>
c1ccc(COCc2ccccc2)cc1

>  <measured-on>
Thyroid hormone receptor beta (Homo sapiens)

>  <number>
-18.1

$$$$
>  <compound>
CC(CCC(=O)O)(c1ccc(O)cc1)c1ccc(O)cc1

>  <measured-on>
Thyroid hormone receptor beta (Homo sapiens)

>  <number>
-0.624

$$$$
>  <compound>
OCC(CBr)(CBr)CBr

>  <measured-on>
Thyroid hormone receptor beta (Homo sapiens)

>  <number>
-0.909

$$$$
>  <compound>
OC1CCCCC1

>  <measured-on>
Thyroid hormone receptor beta (Homo sapiens)

>  <number>
4.86

$$$$
>  <compound>
O=[N+]([O-])c1ccccc1Nc1ccccc1

>  <measured-on>
Thyroid hormone receptor beta (Homo sapiens)

>  <number>
8.34

$$$$
>  <compound>
Cc1ccc(O)c(N)c1

>  <measured-on>
Thyroid hormone receptor beta (Homo sapiens)

>  <number>
-10.8

$$$$
>  <compound>
CC(/C=C/C=C(C)/C=C/C(=O)O)=C\C=C\C=C(C)\C=C\C=C(C)\C=C\C(=O)O

>  <measured-on>
Thyroid hormone receptor beta (Homo sapiens)

>  <number>
-2.15

$$$$
>  <compound>
CC(=O)OC(C(=O)c1ccccc1)c1ccccc1 (stereo unspecified)

>  <measured-on>
Thyroid hormone receptor beta (Homo sapiens)

>  <number>
4.95

$$$$
>  <compound>
O=C(O)c1ccc([N+](=O)[O-])cc1

>  <measured-on>
Thyroid hormone receptor beta (Homo sapiens)

>  <number>
-4.73

$$$$
